Where these numbers come from: ChEMBL document CHEMBL1149888

target: UniProt Q9N1N9; assay: Inhibition of equine serum BuChE by Ellman's assay
Sequence (Q9N1N9 whole entry): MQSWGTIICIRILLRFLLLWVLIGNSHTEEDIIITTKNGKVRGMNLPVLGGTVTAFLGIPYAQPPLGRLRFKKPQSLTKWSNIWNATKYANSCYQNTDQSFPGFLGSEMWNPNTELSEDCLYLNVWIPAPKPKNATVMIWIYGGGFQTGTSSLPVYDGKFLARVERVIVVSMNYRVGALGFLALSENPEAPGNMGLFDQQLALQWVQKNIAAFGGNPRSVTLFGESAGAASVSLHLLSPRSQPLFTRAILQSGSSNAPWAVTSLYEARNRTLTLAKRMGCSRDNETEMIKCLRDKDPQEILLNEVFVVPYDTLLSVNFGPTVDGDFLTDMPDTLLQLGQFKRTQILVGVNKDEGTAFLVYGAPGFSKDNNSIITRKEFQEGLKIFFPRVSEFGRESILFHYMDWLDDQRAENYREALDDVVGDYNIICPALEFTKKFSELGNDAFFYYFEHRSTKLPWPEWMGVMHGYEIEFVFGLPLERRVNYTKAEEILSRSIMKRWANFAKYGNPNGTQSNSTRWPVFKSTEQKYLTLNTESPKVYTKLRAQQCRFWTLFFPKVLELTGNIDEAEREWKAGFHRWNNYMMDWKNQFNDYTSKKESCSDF
recordedMetric: IC50 (nM)
Provide only the numeric value, understood in nM.

Please review the following examples before continuing.
compound: NCCCCCCCC/N=c1/c2ccc(Cl)cc2nc2n1CCC2
recordedMetric: IC50
measuredValue: 12
--
compound: O=C(CCCCC1CCSS1)NCCCCC/N=c1/c2ccc(Cl)cc2nc2n1CCC2 (stereo not given)
recordedMetric: IC50
measuredValue: 53
--
compound: O=C(CCCCC1CCSS1)NCCCCCCC/N=c1/c2ccc(Cl)cc2nc2n1CCC2 (stereo not given)
recordedMetric: IC50
measuredValue: 14
--
compound: O=C(CCCCC1CCSS1)NCCCCCC/N=c1/c2ccc(Cl)cc2nc2n1CCC2 (stereo not given)
recordedMetric: IC50
measuredValue: 26

Query compound follows.
Quick one: IC50 of NCCCCCCC/N=c1/c2ccc(Cl)cc2nc2n1CCC2 ?
710
